Measured log2 fold change values are reported for all entries that follow.
Target: ZRANB2 (UniProt O95218)
Sequence (O95218 whole entry, looked up): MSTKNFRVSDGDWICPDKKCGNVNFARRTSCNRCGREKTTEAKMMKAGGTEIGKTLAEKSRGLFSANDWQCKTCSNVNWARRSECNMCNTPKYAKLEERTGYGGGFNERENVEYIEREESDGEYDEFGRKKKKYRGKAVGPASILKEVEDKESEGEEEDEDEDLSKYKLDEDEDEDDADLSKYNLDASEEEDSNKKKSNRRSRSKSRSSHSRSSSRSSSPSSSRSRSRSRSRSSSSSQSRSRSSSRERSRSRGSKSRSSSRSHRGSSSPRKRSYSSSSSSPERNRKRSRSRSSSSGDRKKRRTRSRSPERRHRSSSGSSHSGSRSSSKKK
Experiment: log2 fold change, soluble protein after heating vs DMSO (PISA); higher = thermal stabilisation; K562 cells, 10 uM, 30 min; active = over 0.2 and 3.5 SD of the protein, either way, in both replicates (recomputed)
The full data set covers some 7,900 targets. This sample favours those with a hit. About 0.6% of all pairs of compound and target were hits.
Lab note: jot the number down without any unit.

Example compounds with recorded log2 fold change:
| compound structure | log2 fold change |
| --- | --- |
| Cc1nc(Nc2n[nH]c3c2CN(C(=O)N[C@H](CN(C)C)c2ccccc2)C3(C)C)c2sccc2n1 | -0.032 |
| Cc1cccc(CC(=O)N2CCc3c2ccc(-c2cn(C)c4ncnc(N)c24)c3F)n1 | -0.065 |
| CS(=O)(=O)CCNCc1ccc(-c2ccc3ncnc(Nc4ccc(OCc5cccc(F)c5)c(Cl)c4)c3c2)o1 | 0.018 |

// next entry
Value of log2 fold change reported for the compound Cc1cc(Nc2cc(CN3CCOCC3)c3nc(C)c(Cc4ccc(Cl)cc4F)n3n2)n[nH]1 is 0.064

====

Measured log2 fold change values are reported for all entries that follow.
Target: ZC3H18 (UniProt Q86VM9)
Sequence (Q86VM9 whole entry, looked up): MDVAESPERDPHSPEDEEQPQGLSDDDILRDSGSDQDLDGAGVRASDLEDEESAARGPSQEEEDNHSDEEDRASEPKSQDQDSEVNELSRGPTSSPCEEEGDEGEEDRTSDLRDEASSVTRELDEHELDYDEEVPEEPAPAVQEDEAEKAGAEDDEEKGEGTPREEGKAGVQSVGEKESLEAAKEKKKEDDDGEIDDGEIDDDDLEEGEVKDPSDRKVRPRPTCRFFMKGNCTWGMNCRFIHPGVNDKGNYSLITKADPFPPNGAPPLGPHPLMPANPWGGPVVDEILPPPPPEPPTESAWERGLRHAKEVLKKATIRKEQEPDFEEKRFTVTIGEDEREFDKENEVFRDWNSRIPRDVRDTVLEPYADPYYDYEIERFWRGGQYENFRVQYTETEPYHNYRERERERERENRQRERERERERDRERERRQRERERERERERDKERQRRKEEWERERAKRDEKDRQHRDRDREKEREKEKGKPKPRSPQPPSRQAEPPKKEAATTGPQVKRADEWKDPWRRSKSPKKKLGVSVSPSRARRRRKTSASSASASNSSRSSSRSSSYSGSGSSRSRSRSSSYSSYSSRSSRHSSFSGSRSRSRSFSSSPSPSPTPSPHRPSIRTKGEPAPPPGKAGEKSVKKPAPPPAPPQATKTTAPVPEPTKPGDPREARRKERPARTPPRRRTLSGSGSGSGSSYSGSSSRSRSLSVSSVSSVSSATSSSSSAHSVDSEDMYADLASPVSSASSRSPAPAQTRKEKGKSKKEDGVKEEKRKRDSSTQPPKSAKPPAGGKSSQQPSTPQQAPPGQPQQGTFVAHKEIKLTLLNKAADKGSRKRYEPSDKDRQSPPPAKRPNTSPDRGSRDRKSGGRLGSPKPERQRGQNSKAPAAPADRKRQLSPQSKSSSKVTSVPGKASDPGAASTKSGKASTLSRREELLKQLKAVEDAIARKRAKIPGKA
Assay: log2 fold change, soluble protein after heating vs DMSO (PISA); higher = thermal stabilisation; K562 cells, 10 uM, 30 min; active = over 0.2 and 3.5 SD of the protein, either way, in both replicates (recomputed)
Of roughly 7,900 targets only a part is listed; those with a hit were picked by preference. About 0.6% of all pairs of compound and target were hits.
Lab note: jot the number down without any unit.

Example compounds with recorded log2 fold change:
| compound | assay system | log2 fold change |
| --- | --- | --- |
| CC[C@H](C)n1cc(C)c2c(C(=O)NCc3c(C)cc(C)[nH]c3=O)cc(-c3ccc(N4CCNCC4)nc3)cc21 | ZC3H18 (UniProt Q86VM9) | 0.032 |
| COc1ccc(Cn2ccc3ccc(C(=O)NO)cc32)cc1 | ZC3H18 (UniProt Q86VM9) | -0.009 |
| COc1cc2nc(-c3cc(F)ccc3O)nc(N[C@@H]3CNC[C@H]3C(C)(C)O)c2cc1OC | ZC3H18 (UniProt Q86VM9) | -0.066 |

// next entry
Value of log2 fold change reported for the compound CNCc1ccc(-c2[nH]c3cc(F)cc4c3c2CCNC4=O)cc1 [rucaparib] is 0.029

====

Target: ZADH2 (UniProt Q8N4Q0)
Sequence (Q8N4Q0 whole entry, looked up): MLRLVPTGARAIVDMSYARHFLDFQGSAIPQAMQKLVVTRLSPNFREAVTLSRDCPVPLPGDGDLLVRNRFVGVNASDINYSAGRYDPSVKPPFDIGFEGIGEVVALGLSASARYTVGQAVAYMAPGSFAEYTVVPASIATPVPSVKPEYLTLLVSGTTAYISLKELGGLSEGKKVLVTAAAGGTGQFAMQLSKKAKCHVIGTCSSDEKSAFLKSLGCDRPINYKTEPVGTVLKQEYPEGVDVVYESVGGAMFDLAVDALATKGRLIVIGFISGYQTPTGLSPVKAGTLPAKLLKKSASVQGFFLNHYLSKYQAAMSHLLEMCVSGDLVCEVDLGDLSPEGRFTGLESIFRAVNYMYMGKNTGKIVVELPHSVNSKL
Test: log2 fold change, soluble protein after heating vs DMSO (PISA); higher = thermal stabilisation; K562 cells, 10 uM, 30 min; active = over 0.2 and 3.5 SD of the protein, either way, in both replicates (recomputed)
The full data set covers some 7,900 targets. This sample favours those with a hit. About 0.6% of all pairs of compound and target were hits.
parameter: log2 fold change

Example molecules with recorded log2 fold change:
| compound structure | log2 fold change |
| --- | --- |
| NC1(c2ccc(-c3nc4ccn5c(=O)[nH]nc5c4cc3-c3ccccc3)cc2)CCC1 | 0.106 (inactive) |
| Cn1cc(-c2ccc3c(c2)CCN3C(=O)Cc2cccc(C(F)(F)F)c2)c2c(N)ncnc21 | 0.04 (inactive) |
| CC[C@H](C)[C@H](NC(=O)[C@H]([C@@H](C)CC)N(C)C(C)=O)C(=O)N[C@H](C(=O)N[C@@H](CC(C)C)C(=O)[C@@]1(C)CO1)[C@@H](C)O | 0.077 (inactive) |
| Cn1cc(-c2ccc3nnc(C(F)(F)c4ccc5ncccc5c4)n3n2)cn1 | 0.107 (inactive) |
| NC(=O)c1ccc2nc(-c3ccc(Oc4ccc(Cl)cc4)cc3)[nH]c2c1 | 0.052 (inactive) |

Value of log2 fold change reported for the molecule Cc1nc(Nc2n[nH]c3c2CN(C(=O)N[C@H](CN(C)C)c2ccccc2)C3(C)C)c2sccc2n1 is -0.127 (inactive)

Value of log2 fold change reported for the molecule COc1cc(Nc2ncc3c(n2)-c2ccc(Cl)cc2C(c2c(F)cccc2OC)=NC3)ccc1C(=O)O is 0.021 (inactive)

Value of log2 fold change reported for the molecule COc1cccc2cc(-c3nc([C@H]4CC[C@H](C(=O)O)CC4)n4ncnc(N)c34)[nH]c12 is -0.059 (inactive)

Value of log2 fold change reported for the molecule CN1CC[C@H](c2c(O)cc(O)c3c(=O)cc(-c4ccccc4Cl)oc23)[C@H](O)C1 is -0.05 (inactive)

Value of log2 fold change reported for the molecule COc1cc2nc(-c3cc(F)ccc3O)nc(N[C@@H]3CNC[C@H]3C(C)(C)O)c2cc1OC is 0.045 (inactive)

Value of log2 fold change reported for the molecule Cc1ccc(NC(=O)c2ccc(CN3CC[C@H](N(C)C)C3)c(C(F)(F)F)c2)cc1Nc1nccc(-c2cncnc2)n1 is -0.08 (inactive)

Value of log2 fold change reported for the molecule CN(C)CC(=O)Nc1ccc2[nH]c(=O)c3ccccc3c2c1 is 0.02 (inactive)

Value of log2 fold change reported for the molecule CCN(CC)Cc1ccc2cc(COC(=O)Nc3ccc(C(=O)NO)cc3)ccc2c1 is -0.066 (inactive)

Value of log2 fold change reported for the molecule CCCc1cc(C)[nH]c(=O)c1CNC(=O)c1cc(-c2ccnc(N3CCN(C)CC3)c2)cc2c1cnn2C(C)C is 0.004 (inactive)

Value of log2 fold change reported for the molecule O=C(O)c1ccc2c(c1)nc(Nc1cccc(Cl)c1)c1ccncc12 is 0.053 (inactive)

Value of log2 fold change reported for the molecule Cc1ccc(NC(=O)c2cccc(C(C)(C)C#N)c2)cc1Nc1ccc2ncn(C)c(=O)c2c1 is 0.453 (active)

Value of log2 fold change reported for the molecule Cc1nc(Nc2ncc(C(=O)Nc3c(C)cccc3Cl)s2)cc(N2CCN(CCO)CC2)n1 is 0.035 (inactive)
